assay-name: Human HepG2 cell viability assay in 384 well format
Format: toxicity, cell-based
Set-up: dose 125 nL, time 70.5 hour; concentration not given beside the values
condition-description: HepG2 cells, read-out: Inhibition
Consider the following molecules and their measured cytotoxicity at 70.5 h readings.
reported-property: cytotoxicity at 70.5 h

>>> obs_value("CNS(=O)(=O)Cc1ccc(CNC(=O)c2cccc(C)n2)cc1")
"-1.09%"
>>> obs_value("CCc1ncc2c(n1)CN(Cc1nc(-c3ccsc3)no1)CC2")
"-6.7%"
>>> obs_value("Cc1ccc(OCC(O)CN2CCC(Cn3cc(C)cn3)CC2)cc1 (centres undefined)")
"-0.66%"
>>> obs_value("COc1c(CC2CC(C(=O)O)=NO2)c(Br)c2c(c1OC)OCO2 (centres undefined)")
"-7.83%"
>>> obs_value("CN1CCNC(Cc2ccc(-c3ccccc3)cc2)C1=O (centres undefined)")
"21.5%"
>>> obs_value("COCCN1CCN(S(=O)(=O)C2CC2)Cc2cccnc21")
"-5.48%"
>>> obs_value("Cc1nn(C)c(C)c1C1CCCN1Cc1nc(-c2cccs2)no1 (centres undefined)")
"-2%"
>>> obs_value("CNC(=O)CN1C(=O)CCC12CCCN(Cc1cccc(F)c1)C2 (centres undefined)")
"-6.75%"
>>> obs_value("CC(C)CC(NC(=O)c1cc(-c2cccn2C)n[nH]1)c1ncnn1C (centres undefined)")
"-1.67%"

----------
Overview of recorded cytotoxicity at 70.5 h for various compounds
assay-name: Human HepG2 cell viability assay in 384 well format
Assay type: toxicity, cell-based
Set-up: dose 125 nL, time 70.5 hour; concentration not given beside the values
condition-description: HepG2 cells, read-out: Inhibition
reported-property: cytotoxicity at 70.5 h (%)

>>> obs_value("COC(C)(C)c1noc(C2(C#N)CCCCC2)n1")
-0.329
>>> obs_value("CN(C)CC1(O)CCCN(c2noc(-c3ccccc3)n2)CC1 (stereo not given)")
6.79
>>> obs_value("O=C(COC1CCCC1)NCc1ccc(O)c(F)c1")
-3.82
>>> obs_value("CCC(=O)N1CSCC1C(=O)Nc1ccccc1-c1cccs1 (stereo not given)")
-9.09
>>> obs_value("CCC(O)CNc1nccc(-c2ccc(C)nc2C)n1 (stereo not given)")
-14.6
>>> obs_value("CS(=O)(=O)c1ccc(CNC(=O)N2CCC(CO)CC2)cc1")
-2.86
>>> obs_value("CS(=O)(=O)c1ccc(OCCNCc2cccc(Cl)c2)cc1")
23.8
>>> obs_value("O=C(NC1CC(=O)N(C2Cc3ccccc3C2)C1)c1ccsc1 (stereo not given)")
-3.74
>>> obs_value("CC(C)CC(C#N)NC(=O)CCNC(=O)C(C)(C)C (stereo not given)")
2.87
>>> obs_value("COc1cccc(C2CCCN2C(=O)NCCCn2cccn2)c1 (stereo not given)")
-6.25

----------
assay-name: Human HepG2 cell viability assay in 384 well format
Format: toxicity, cell-based
Set-up: dose 125 nL, time 70.5 hour; concentration not given beside the values
condition-description: HepG2 cells, read-out: Inhibition
Entries and their cytotoxicity at 70.5 h values follow.
reported-property: cytotoxicity at 70.5 h (%)

>>> obs_value("CSC(C)(C)CNC(=O)NCc1cccc(-n2cncn2)c1")
-0.656
>>> obs_value("CCN(Cc1ccccc1)C(=O)CN1CCCCC1Cn1cncn1 (stereo not drawn)")
-6.76
>>> obs_value("O[C@@]1(CNCCOc2ccccc2)CCCN2CCCC[C@@H]21")
28
>>> obs_value("COCC(O)CN1CCC(=O)N(CC=C(C)C)Cc2ccccc21 (stereo not drawn)")
-6.53
>>> obs_value("CCN(CC)C(=O)c1nc2c(s1)CCN(C(=O)CCC(=O)OC)CC2")
3.92
>>> obs_value("CCCC(C)CN1CCC(n2cc(CCCO)nn2)CC1 (stereo not drawn)")
-4.4
>>> obs_value("Cc1cccc2c1cnn2CCC(=O)NCc1csc(C2CC2)n1")
-8.07
>>> obs_value("CN(C)CC(=O)N1CCC2(CC1)CN(Cc1ccccc1)C2")
30.2
>>> obs_value("COCCS(=O)(=O)N1CCN(c2cccc(O)c2)CC1")
-2.61
>>> obs_value("COc1c(CNC2CCCOc3ccc(F)cc32)c(C(C)C)nn1C (stereo not drawn)")
-4.87
>>> obs_value("CCc1nc2c(c(NC3CCC3)n1)CCN(C(=O)CO)CC2")
0.47
>>> obs_value("CC(C)N1CCC(CC(=O)NCCc2cc(O)ncn2)CC1")
-11.7
>>> obs_value("CN(CC(=O)N1CCOC(CCc2ccccc2)C1)Cc1ccccn1 (stereo not drawn)")
-7.68

----------
Recorded cytotoxicity at 70.5 h, one value per entry.
assay-name: Human HepG2 cell viability assay in 384 well format
Type: toxicity, cell-based
Set-up: dose 125 nL, time 70.5 hour; concentration not given beside the values
condition-description: HepG2 cells, read-out: Inhibition
reported-property: cytotoxicity at 70.5 h (%)

>>> obs_value("O=C([C@H]1C[C@@H]2CCN(c3cccc(F)c3)C[C@H]2O1)N1CCCC1")
-14.2
>>> obs_value("CN(C)CCN1CCN(Cc2cccs2)Cc2cccnc21")
-0.769
>>> obs_value("Cc1csc(C2(NCC(O)COc3ccc(F)cc3)CCC2)n1 (stereo unspecified)")
-0.482
>>> obs_value("Cc1ccc(CN2CC[C@H]3C[C@H](c4nc(C5CC5)cs4)O[C@@H]3C2)o1")
-6.11
>>> obs_value("CCCn1nc(-c2nc(C3CC3)no2)ccc1=O")
5.03
>>> obs_value("CC1CCN(c2ccc3c(-c4ncc(C(=O)O)s4)noc3c2)CC1")
-5.23
>>> obs_value("CCOc1ccc2[nH]c(=O)c(CN3CCC(N4CCCC4)CC3)cc2c1")
-4.41
>>> obs_value("Cn1nc(CNC(=O)CC#N)c2c1CN(C(N)=O)CC2")
11.4
>>> obs_value("Cc1cccc(CN2C(=O)CC[C@@H]3[C@H]2CCN3Cc2nccn2C)n1")
-9.05
>>> obs_value("CN1CCN2CCN(Cc3cc(=O)n4c5c(cccc35)CCC4)CC2C1 (stereo unspecified)")
-13.5
>>> obs_value("Cc1ccc(F)c(OC2(C(=O)O)CCN(C(=O)c3ccccc3)CC2)c1")
-6.1
>>> obs_value("CNc1ncc(CN2CCCC2c2[nH]ncc2C(=O)N(C)C)cn1 (stereo unspecified)")
-3.21
>>> obs_value("Cc1ccc(C(=O)N(C)Cc2ccc(Br)o2)c(=O)[nH]1")
-2.83
>>> obs_value("CC(C)(C)NC(=O)C1CSCN1C(=O)CCc1ccco1 (stereo unspecified)")
-0.786
>>> obs_value("O=C(NCc1cncc2c1CCN(Cc1ccoc1)C2)C1CC1")
-0.887
>>> obs_value("c1cnc(N2Cc3nccn3CC(COc3cccnc3)C2)nc1 (stereo unspecified)")
-8.37
>>> obs_value("O=C(NCCCn1cncn1)N1CCCCCC1")
1.12
>>> obs_value("Cc1ccc(CNC(=O)NC2CCCN(c3ncccn3)C2)cn1 (stereo unspecified)")
-10
>>> obs_value("CC(C)N(C(=O)Cn1nnnc1CCc1ccccc1)C(C)C")
10.7
>>> obs_value("CC(=O)NCC(=O)NC1CCc2c(ccc(=O)n2CC2CC2)C1 (stereo unspecified)")
-1.98
>>> obs_value("CC(=O)N1CCCC(c2ncncc2-c2ccncc2)C1 (stereo unspecified)")
-7.71
>>> obs_value("Cc1ncc(CNC(=O)c2nn(C)c3c2CS(=O)(=O)CC3)s1")
-5.86
>>> obs_value("Cc1nc2n(n1)CC(NCc1cc(Cl)c3c(c1)OCCO3)CC2 (stereo unspecified)")
-4.92
>>> obs_value("COCC(=O)N1CCCC1c1csc(Nc2cnccn2)n1 (stereo unspecified)")
-10.2
>>> obs_value("Cc1ccc(NC(=O)[C@@H]2C[C@H](C(=O)O)CN(Cc3sccc3C)C2)cn1")
18.3
>>> obs_value("Cc1ccc(CN2CCC(n3cc(CN4CCC(O)CC4)nn3)CC2)s1")
-6.27
>>> obs_value("N#Cc1cccnc1NCc1cccnc1N1CCC(C(N)=O)CC1")
-9.67
>>> obs_value("CN1CCOC(CN(C(=O)CC2CCCC2)c2nccs2)C1 (stereo unspecified)")
4.76
>>> obs_value("CC(=O)c1cc(CN2C[C@@H](C(=O)O)[C@H](c3cccnc3)C2)cs1")
-7.32
>>> obs_value("CC(=O)N1CCC(NC(=O)NCCCc2cn[nH]c2C)CC1")
0.436
>>> obs_value("O=S(=O)(c1ccc(Cl)s1)N1CCCC(c2ncc[nH]2)C1 (stereo unspecified)")
-1.59

----------
assay-name: Human HepG2 cell viability assay in 384 well format
Type: toxicity, cell-based
Parameters: dose 125 nL, time 70.5 hour; concentration not given beside the values
condition-description: HepG2 cells, read-out: Inhibition
Here, each record is paired with measured cytotoxicity at 70.5 h data.
reported-property: cytotoxicity at 70.5 h (%)

>>> obs_value("Cc1c(C(C)NC(=O)N2CCN(C3CCCC3)CC2)cnn1C (stereo not drawn)")
54.3
>>> obs_value("CCCc1n[nH]c(=O)n1Cc1ccccc1F")
2.4
>>> obs_value("Cc1nn(C)c(C)c1CCn1cncc1-c1ccc2c(c1)CC(C)N2C (stereo not drawn)")
4.43
>>> obs_value("O=C(c1ccc(O)cc1)N1CCN(C(=O)c2ccc3c(c2)COC3)CC1")
2.44
>>> obs_value("CCc1ncncc1C(=O)N1CCN(Cc2cscn2)CC1")
-3.97
>>> obs_value("Cc1cc(C(F)(F)F)cc(=O)n1CCCn1cnnn1")
-11.2
>>> obs_value("Cc1csc(CCCNC(=O)[C@H]2CNC[C@@H](C(=O)N3CCCC3)C2)n1")
-9.44
>>> obs_value("Cc1cccc(CN2CC[C@H]3O[C@H](C(=O)Nc4cnccn4)CC[C@H]32)n1")
1.13
>>> obs_value("O=C(Nc1ccc2c(ccn2CCN2CCOCC2)c1)c1ccncc1")
-1.62
>>> obs_value("CC(C)c1nc(CN(C)C2CCN(Cc3nnc(C4CC4)o3)C2)no1 (stereo not drawn)")
1.8
>>> obs_value("CCOC(=O)CC(C)Nc1nc(C(C)(C)C)nc2c1cnn2C (stereo not drawn)")
22.1
>>> obs_value("O=C(NCCO)NCC(c1ccccc1)N1CCc2sccc2C1 (stereo not drawn)")
-13.1
>>> obs_value("CCC1=N[C@@]2(CC[C@@H]3CN(S(=O)(=O)CC(C)C)C[C@@H]32)C(=O)N1C")
-1.14
